assay-name: Plasma pharmacokinetics of antibiotics (HPLC)
Assay type: in vivo, Coho salmon (Oncorhynchus kisutch)
experimental-conditions: plasma, po, 15 mg/kg, oral in commercial feed
test-readout: Tmax (h)
Give just the number in h; leave the unit off.

So what does the record say about Tmax for CS(=O)(=O)c1ccc([C@@H](O)[C@@H](CF)NC(=O)C(Cl)Cl)cc1 [Florfenicol] ?
8

* * *

assay-name: Plasma pharmacokinetics of antibiotics (HPLC)
Type: in vivo, Coho salmon (Oncorhynchus kisutch)
experimental-conditions: plasma, po, 15 mg/kg, oral in Oralject ™ (F2)
Procedure: In the first study, Coho salmon (n-70 fish/group) were treated with flumequine at a dose of 30 mg/kg incorporated in commercial feed or in formula F2. In the second study, fish were treated orally with florfenicol, antibiotic was given at 15 mg/kg incorporated in commercial feed or at 15 and 50 mg/kg in formula F2. In addition, florfenicol was also given via i.p. injection at 20 mg/kg. […] Levels of antibiotics in plasma of fish were determined by high performance liquid chromatography (HPLC).
test-readout: Tmax (h)
Give just the number in h; leave the unit off.

Tmax for CS(=O)(=O)c1ccc([C@@H](O)[C@@H](CF)NC(=O)C(Cl)Cl)cc1 [Florfenicol] ?
16
